test system: CCL1 cells; assay: Cellular metabolic activity (CellTiter AQueous One Solution Reagent), CCL1 cells; type: cell-based; conditions: two-fold serial dilutions, 24 h and 72 h
QUANTITY_NAME: effect of monomer concentration on CCL1 metabolic activity

[
  {
    "CHEMICAL_STRING": "C=C(C)C(=O)OCC[N+](C)(C)CCCCCCCCCCC(=O)O.[Br-]",
    "REPORTED_RESULT": "exerted an effect"
  },
  {
    "CHEMICAL_STRING": "C=C(C)C(=O)OCC[N+](C)(C)CCCCCCCCCCC[Si](OC)(OC)OC.[Br-]",
    "REPORTED_RESULT": "exerted an effect"
  }
]
